study.target: A*0203 (Homo sapiens, UniProt P04439, A173T/D140Y/D185E/D98H/E277Q/G131W/G231S/I119V/I121R/I166T/I218V/L180W/L300P/L318F/N151K/N90K/P208A/P217A/Q86G/Q94H/R138H/R169H/T345S)
assay.remarks: biochemical
Reported pIC50 values are given for each entry in this list.
Conceptually, pIC50 converts a concentration in mol/L into minus its log10.

Completed entries (count: 4):
[
  {
    "compound": "CC[C@H](C)[C@H](NC(=O)CN)C(=O)N[C@@H](CCSC)C(=O)N[C@H](C(=O)NCC(=O)N[C@H](C(=O)N[C@@H](CC(C)C)C(=O)N[C@H](C(=O)NCC(=O)N[C@H](C(=O)N[C@H](C(=O)O)C(C)C)C(C)C)C(C)C)C(C)C)[C@@H](C)CC [Peptide 9013.0344]",
    "pIC50": 7.09
  },
  {
    "compound": "CSCC[C@H](NC(=O)[C@@H](N)CCCNC(=N)N)C(=O)N1CCC[C@H]1C(=O)N[C@@H](CCC(=O)O)C(=O)N[C@@H](C)C(=O)N[C@@H](C)C(=O)N1CCC[C@H]1C(=O)N1CCC[C@H]1C(=O)N[C@H](C(=O)N[C@H](C(=O)O)C(C)C)C(C)C [Peptide 1317.29]",
    "pIC50": 8.20
  },
  {
    "compound": "CC[C@H](C)[C@H](NC(=O)[C@@H](NC(=O)[C@H](CC(C)C)NC(=O)[C@@H](N)CS)[C@@H](C)O)C(=O)N[C@@H](Cc1c[nH]cn1)C(=O)N[C@@H](Cc1ccc(O)cc1)C(=O)N[C@@H](CC(N)=O)C(=O)N[C@@H](Cc1ccc(O)cc1)C(=O)N[C@H](C(=O)O)C(C)C [Peptide 1323.07]",
    "pIC50": 7.19
  },
  {
    "compound": "CSCC[C@H](NC(=O)[C@H](C)N)C(=O)N[C@@H](CS)C(=O)N[C@@H](CCCNC(=N)N)C(=O)N[C@@H](Cc1c[nH]c2ccccc12)C(=O)NCC(=O)N[C@@H](CC(C)C)C(=O)N[C@@H](CC(C)C)C(=O)N[C@H](C(=O)O)C(C)C [Peptide 1334.07]",
    "pIC50": 5.80
  }
]

Proceed to the following item.
Input line: Provide one value: measured pIC50 of CC(C)C[C@H](NC(=O)[C@@H](N)CCCNC(=N)N)C(=O)N1CCC[C@H]1C(=O)N[C@@H](CCC(=O)O)C(=O)N[C@@H](C)C(=O)N[C@@H](C)C(=O)N1CCC[C@H]1C(=O)N1CCC[C@H]1C(=O)N[C@H](C(=O)N[C@H](C(=O)O)C(C)C)C(C)C [Peptide 1323.17]
Output line: 7.74

----------
study.target: DR4w4 (DRB1*0401) (Homo sapiens, UniProt P01903+P01911, A100K/A169T/F76Y/I96L/K127E/L162R/M171V/N62H/P40V/Q125Y/R42H/S133A/S149N/S66Y/V115G/V209L/W38E)
assay.remarks: biochemical
Type: binding
No end group written: not given here.
measured.property: IC50

[
  {
    "seq.text": "CWTYFDNYMRNALDG [Peptide 89.0090]",
    "IC50": "3590 nM"
  },
  {
    "seq.text": "GKSLFGMSLMKFLQG [Peptide 89.0019]",
    "IC50": "468 nM"
  },
  {
    "seq.text": "LKVLIQPYSIYAHLQ [Peptide 89.0098]",
    "IC50": "524 nM"
  },
  {
    "seq.text": "DHDITDDSDIAYKYA [Peptide 90.0117]",
    "IC50": "510 nM"
  },
  {
    "seq.text": "IVHLKGDPNSLKCLR [Peptide 90.0255]",
    "IC50": "83 nM"
  }
]

Input line: For the sequence WCIIGMGVTPSVAEG [Peptide 89.0097] , give its measured IC50 value.
Output line: > 20000 nM

Input line: Item QAELETAQALFHAQE [Peptide 89.0022] : provide IC50
Output line: 122 nM

Input line: Provide measured IC50 value, entry: KVAMLDDATHTCWTY [Peptide 90.0105]
Output line: 34 nM

Input line: // Input: GCWRQTSREPRESTV [Peptide 1543.46] . Output its IC50 only.
Output line: 1840 nM

Input line: Input DPRWPYLHSRLVVFH [Peptide 89.0113] , output reported IC50.
Output line: 138 nM

Input line: Answer with the recorded IC50 of PTGCLKKHGYTVEVQ [Peptide 1601.23] only.
Output line: 19800 nM

Input line: Output IC50 of DNDIVDDSEIAYKYA [Peptide 90.0037]
Output line: 4620 nM

Input line: Consider the sequence LKAICIEKQSRAAKR [Peptide 90.0032] . State its measured IC50.
Output line: 307 nM
